Entry source: patent US5952307A

Target: bovine trypsin (Bos taurus, UniProt P00760)
Sequence (P00760 24-246): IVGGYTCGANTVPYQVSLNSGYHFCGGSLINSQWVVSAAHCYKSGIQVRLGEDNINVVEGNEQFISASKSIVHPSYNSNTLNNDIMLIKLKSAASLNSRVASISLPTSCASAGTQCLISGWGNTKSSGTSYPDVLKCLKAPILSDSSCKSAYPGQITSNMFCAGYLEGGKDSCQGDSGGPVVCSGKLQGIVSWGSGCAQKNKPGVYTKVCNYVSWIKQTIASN
Assay: Inactivation rate of bovine trypsin, incubation method
Type: biochemical
Conditions: Table II; 0.13 μM trypsin, 0.25-42 μM inhibitor, 80 mM Hepes pH 7.5, 1 mM CaCl2, 8% DMSO, 25° C.; NI = no inhibition
Protocol: Inactivation rates of serine proteases by aryl diesters of peptidyl derivatives of α-aminoalkylphosphonates were measured by the incubation method. […] Aliquots (50 μl) were withdrawn at various intervals and the residual enzymatic activity was measured. […] All peptide thioesters hydrolysis rates were measured with the assay mixture containing 4,4'-dithiodipyridine {ε324 =19800 M^-1 cm^-1; Grasetti & Murray, Arch. […] ^a Inhibition constants were measured in 0.1M Hepes, 0.01M CaCl2 […]
value kind: kobs /[I] bovine trypsin (M⁻¹ s⁻¹)
Provide the reading as a plain figure in M⁻¹ s⁻¹.

CC(C)CC(NC(=O)OCc1ccccc1)C(=O)NC(c1ccc(C(=N)N)cc1)P(=O)(Oc1ccccc1)Oc1ccccc1 (mixture of isomers) ... 1.3

In the following, a different molecule is considered.
Q: Under bovine trypsin (Bos taurus, UniProt P00760): kobs /[I] bovine trypsin value of Cl.N=C(N)c1ccc(C(NC(=O)OCc2ccccc2)P(=O)(Oc2ccccc2)Oc2ccccc2)cc1 (centres unmarked) ?
Result: 170

###

We begin with a simple list: items and their reported kobs /[I] bovine trypsin.
Target: bovine trypsin (Bos taurus)
Experiment: Inactivation rate of bovine trypsin, incubation method
Format: biochemical
Details: Table III; enzyme 0.06-0.5 μM, inhibitor 0.25-42 μM, 9% DMSO, 25° C.; NI = no inhibition
Provide the reading as a plain figure in M⁻¹ s⁻¹.

Known results for molecules:
Cl.NCCCCCC(NC(=O)[C@@H]1CCCN1C(=O)c1ccccc1Oc1ccccc1)P(=O)(Oc1ccccc1)Oc1ccccc1 (some centres unmarked) ... 69
CC(C)C(NC(=O)CCC(=O)O)C(=O)N1CCCC1C(=O)NC(CCCCCN)P(=O)(Oc1ccccc1)Oc1ccccc1 (mixture of isomers) ... 51

Q: What measured kobs /[I] bovine trypsin goes with NCCCCCC(NC(=O)[C@@H]1CCCN1C(=O)CC(c1ccccc1)c1ccccc1)P(=O)(Oc1ccccc1)Oc1ccccc1 (some centres unmarked) ?
Result: 16

###

Biological target: rat granzyme K (Rattus norvegicus, UniProt P49864)
Sequence (P49864 26-258): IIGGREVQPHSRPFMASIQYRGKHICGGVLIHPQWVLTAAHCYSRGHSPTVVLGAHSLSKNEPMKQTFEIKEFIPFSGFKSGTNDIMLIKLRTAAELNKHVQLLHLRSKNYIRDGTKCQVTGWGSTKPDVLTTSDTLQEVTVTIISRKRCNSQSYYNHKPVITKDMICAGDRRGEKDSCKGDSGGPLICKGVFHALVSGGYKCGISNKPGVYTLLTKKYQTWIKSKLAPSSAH
Assay: Inactivation rate of rat granzyme K, incubation method
Type: biochemical
Conditions: Table I; 0.1M Hepes, 0.01M CaCl2 pH 7.5, 25° C., 7.1% DMSO, substrate Z--Arg--SBzl; NI = no inhibition after 25 min of incubation
We begin with a simple list: items and their reported kobsd /[I] rat granzyme K.

Known results for molecules:
C[C@@H](O)[C@H](NC(=O)OCc1ccccc1)C(=O)NC(c1ccc(C(=N)N)cc1)P(=O)(Oc1ccccc1)Oc1ccccc1 (stereo partly shown) ... 3 M⁻¹ s⁻¹
N=C(N)c1ccc(C(NC(=O)C2CCCN2C(=O)CNS(=O)(=O)Cc2ccccc2)P(=O)(Oc2ccccc2)Oc2ccccc2)cc1 (mixture of isomers) ... 87 M⁻¹ s⁻¹
Cl.N=C(N)c1ccc(C(NC(=O)/C=C/c2cccnc2)P(=O)(Oc2ccccc2)Oc2ccccc2)cc1 (stereo not shown) ... 3 M⁻¹ s⁻¹

In the following, a different molecule is considered.
Q: What measured kobsd /[I] rat granzyme K goes with N=C(N)c1ccc(C(NC(=O)C(CCCCN)NC(=O)OCc2ccccc2)P(=O)(Oc2ccccc2)Oc2ccccc2)cc1 (mixture of isomers) ?
Result: 1 M⁻¹ s⁻¹

###

Target: bovine trypsin (Bos taurus, UniProt P00760)
Experiment: Inactivation rate of bovine trypsin, incubation method
Assay type: biochemical
Details: Table II; 0.13 μM trypsin, 0.25-42 μM inhibitor, 80 mM Hepes pH 7.5, 1 mM CaCl2, 8% DMSO, 25° C.; NI = no inhibition
We begin with a simple list: items and their reported kobs /[I] bovine trypsin.

CC(C)CC(N)C(=O)NC(CC(=O)O)C(=O)N1CCCC1C(=O)NC(c1ccc(C(=N)N)cc1)P(=O)(Oc1ccccc1)Oc1ccccc1 (mixture of isomers) ... 204 ± 19 M⁻¹ s⁻¹
CC(C)(C)OC(=O)NC(Cc1ccccc1)C(=O)NCC(=O)NC(c1ccc(C(=N)N)cc1)P(=O)(Oc1ccccc1)Oc1ccccc1 (mixture of isomers) ... 6,620 ± 835 M^-1 s^-1
CC(NC(=O)C(CCCCN)NC(=O)OCc1ccccc1)C(=O)NC(c1ccc(C(=N)N)cc1)P(=O)(Oc1ccccc1)Oc1ccccc1 (mixture of isomers) ... 3,140 ± 262 M^-1 s^-1

Q: Under bovine trypsin (Bos taurus, UniProt P00760): kobs /[I] bovine trypsin value of CC(NC(=O)OCc1ccccc1)C(=O)NC(c1ccc(C(=N)N)cc1)P(=O)(Oc1ccccc1)Oc1ccccc1 (mixture of isomers) ?
Result: 1,850 ± 85 M^-1 s^-1

Q: Lookup C[C@H](NC(=O)OCc1ccccc1)C(=O)N[C@@H](C)C(=O)NC(c1ccc(C(=N)N)cc1)P(=O)(Oc1ccccc1)Oc1ccccc1 (some centres unmarked)
Result: 3,620 ± 588 M^-1 s^-1

###

Target: human thrombin (Homo sapiens, UniProt P00734)
Construct: bovine trypsin, human thrombin
Type: biochemical
Conditions: Table II; 0.07 μM thrombin, 0.25-42 μM inhibitor, 80 mM Hepes pH 7.5, 428 mM NaCl, 8% DMSO, 25° C.; NI = no inhibition
value kind: kobs /[I] human thrombin

Known results for compounds:
N=C(N)c1ccc(C(NC(=O)[C@@H]2CCCN2C(=O)CC(c2ccccc2)c2ccccc2)P(=O)(Oc2ccccc2)Oc2ccccc2)cc1 (some centres unmarked) ... 80,300 ± 368 M^-1 s^-1
N=C(N)c1ccc(C(NC(=O)C2CCCN2C(=O)CCc2ccccc2)P(=O)(Oc2ccccc2)Oc2ccccc2)cc1 (centres unmarked) ... 6,070 ± 68 M^-1 s^-1
CC(NC(=O)C(Cc1ccccc1)NC(=O)OCc1ccccc1)C(=O)NC(c1ccc(C(=N)N)cc1)P(=O)(Oc1ccccc1)Oc1ccccc1 (mixture of isomers) ... 1,150 ± 88 M^-1 s^-1

Q: What measured kobs /[I] human thrombin goes with C[C@H](NC(=O)OCc1ccccc1)C(=O)N[C@@H](C)C(=O)NC(c1ccc(C(=N)N)cc1)P(=O)(Oc1ccccc1)Oc1ccccc1 (some centres unmarked) ?
Result: 3,030 ± 222 M^-1 s^-1

Q: Lookup Cl.N=C(N)c1ccc(C(NC(=O)[C@@H]2CCCN2C(=O)c2cccc(Oc3ccccc3)c2)P(=O)(Oc2ccccc2)Oc2ccccc2)cc1 (some centres unmarked)
Result: 1,340 ± 225 M^-1 s^-1

###

Biological target: bovine trypsin (Bos taurus, UniProt P00760)
Assay: Inactivation rate of bovine trypsin, incubation method
Type: biochemical
Conditions: Table I; 0.1M Hepes, 0.01M CaCl2 pH 7.5, 25° C., 2% DMSO, substrate Z--Arg--SBzl; NI = no inhibition after 25 min
We begin with a simple list: items and their reported kobsd /[I] bovine trypsin.
Provide the reading as a plain figure in M⁻¹ s⁻¹.

Known results for compounds:
CC(NC(=O)C(Cc1ccccc1)NC(=O)OCc1ccccc1)C(=O)NC(c1ccc(C(=N)N)cc1)P(=O)(Oc1ccccc1)Oc1ccccc1 (mixture of isomers) ... 3010
CC(NC(=O)OCc1ccccc1)C(=O)NC(C)C(=O)NC(C)C(=O)NC(c1ccc(C(=N)N)cc1)P(=O)(Oc1ccccc1)Oc1ccccc1 (mixture of isomers) ... 1780
Cl.N=C(N)c1ccc(C(NC(=O)/C=C/c2ccccc2)P(=O)(Oc2ccccc2)Oc2ccccc2)cc1 (stereo not drawn) [trans-Cinnamoyl-(4-AmPhGly)^P (OPh)2] ... 110

Q: What measured kobsd /[I] bovine trypsin goes with N=C(N)c1ccc(C(NC(=O)C(Cc2ccccc2)NC(=O)OCc2ccccc2)P(=O)(Oc2ccccc2)Oc2ccccc2)cc1 (mixture of isomers) ?
Result: 17

Q: Lookup Cl.N=C(N)c1ccc(C(NC(=O)[C@@H]2CCCN2C(=O)c2ccccc2Oc2ccccc2)P(=O)(Oc2ccccc2)Oc2ccccc2)cc1 (stereo partly drawn)
Result: 7760

Q: Lookup Cl.N=C(N)c1ccc(C(NC(=O)C=Cc2ccco2)P(=O)(Oc2ccccc2)Oc2ccccc2)cc1 (stereo not drawn)
Result: 360

Q: Lookup CC(C)C(NC(=O)OCc1ccccc1)C(=O)NC(c1ccc(C(=N)N)cc1)P(=O)(Oc1ccccc1)Oc1ccccc1 (mixture of isomers)
Result: 41

Q: Lookup CC(NC(=O)C(CC(=O)O)NC(=O)OCc1ccccc1)C(=O)NC(c1ccc(C(=N)N)cc1)P(=O)(Oc1ccccc1)Oc1ccccc1 (mixture of isomers)
Result: 2550

Q: Lookup Cl.N=C(N)c1ccc(C(NC(=O)c2ccccc2Oc2ccccc2)P(=O)(Oc2ccccc2)Oc2ccccc2)cc1 (stereo not drawn)
Result: 670

###

We begin with a simple list: items and their reported kobs /[I] bovine trypsin.
Target: bovine trypsin (Bos taurus)
Assay: Inactivation rate of bovine trypsin, incubation method
Type: biochemical
Settings: Table II; 0.13 μM trypsin, 0.25-42 μM inhibitor, 80 mM Hepes pH 7.5, 1 mM CaCl2, 8% DMSO, 25° C.; NI = no inhibition

N=C(N)c1ccc(C(NC(=O)C(CCCCN)NC(=O)OCc2ccccc2)P(=O)(Oc2ccccc2)Oc2ccccc2)cc1 (mixture of isomers) ... 30 ± 1 M⁻¹ s⁻¹

Q: Under bovine trypsin (Bos taurus): kobs /[I] bovine trypsin value of N=C(N)c1ccc(C(NC(=O)C2CCCN2C(=O)CNS(=O)(=O)Cc2ccccc2)P(=O)(Oc2ccccc2)Oc2ccccc2)cc1 (mixture of isomers) ?
Result: 37,060 ± 986 M^-1 s^-1

Q: Lookup CC(NC(=O)C(CCCCNC(=O)OC(C)(C)C)NC(=O)OCc1ccccc1)C(=O)NC(c1ccc(C(=N)N)cc1)P(=O)(Oc1ccccc1)Oc1ccccc1 (mixture of isomers)
Result: 3,100 ± 177 M^-1 s^-1

Q: Lookup CC(NC(=O)C(CC(=O)O)NC(=O)OCc1ccccc1)C(=O)NC(c1ccc(C(=N)N)cc1)P(=O)(Oc1ccccc1)Oc1ccccc1 (mixture of isomers)
Result: 2,550 ± 145 M^-1 s^-1
